Target: GlyT1 (Homo sapiens, UniProt P48067)
Construct: expressed in transfected cells
Test: Glycine Transporter 1 (GlyT1) uptake assay, scintillation proximity assay of [14C]-glycine uptake
Type: cell-based
Details: SPA, four parameter logistic fit, read-out: GlyT1 (pIC50) (converted)
Description: Glycine Transporter 1 (GlyT1) Uptake Assay Plates were then read on a MicroBeta plate counter (Perkin Elmer). Dose-response data for tested compounds were analyzed and curves were fit using a four parameter logistic fit to determine IC50 values. […]
Give measured IC50 for each item. Keep answers brief.

Given Cc1cc(-n2cc3c(n2)CN(C(=O)c2c(O[C@@H](C)C(F)(F)F)ccc(C#N)c2Cl)C3)ccn1 , respond with its IC50.
< 100 nM

Check the records and state IC50 for Cc1c2c(nn1-c1ccccc1)CCN(C(=O)c1cc(S(C)(=O)=O)ccc1N1CCCCC1)C2
100 to 1000 nM

Identify measured IC50 associated with COc1ncc(F)cc1-n1cc2c(n1)CCN(C(=O)c1c(OC(C)C(F)(F)F)ccc(C#N)c1Cl)C2 (stereo not shown)
100 to 1000 nM

Now take the following compound into account.
For the compound CCOc1c2c(nn1-c1ccc(F)cc1)CCN(C(=O)c1c(OC(C)C(F)(F)F)ccc(C#N)c1Cl)C2 (stereo not shown) , give its measured IC50 value.
1000 to 10000 nM

###

For each record, write down the corresponding IC50.
target: GlyT1 (Homo sapiens, UniProt P48067); construct: expressed in transfected cells; assay: Glycine Transporter 1 (GlyT1) uptake assay, scintillation proximity assay of [14C]-glycine uptake; assay type: cell-based; conditions: SPA, four parameter logistic fit, read-out: GlyT1 (pIC50) (converted)

Recorded results for 2 molecules are shown here.
Provide IC50 value for the following molecule: C[C@H](Oc1ccc(C#N)cc1C(=O)N1Cc2cn(CC3CC3(F)F)nc2C1)C(F)(F)F (stereo partly drawn)
100 to 1000 nM

Kindly indicate its recorded IC50. Item: Cc1cc(-n2cc3c(n2)CN(C(=O)c2cc(C#N)ccc2O[C@@H](C)C(F)(F)F)C3)ccn1
< 100 nM

Answer for every listed entry: what is its IC50? The entries follow.
1. COc1c(C#N)ccc(O[C@@H](C)C(F)(F)F)c1C(=O)N1Cc2cn(-c3ccc(F)c(C)n3)nc2C1
2. CC(Oc1ccc(C#N)c(Cl)c1C(=O)N1CCc2nn(-c3ccncc3)cc2C1)C(F)(F)F (stereo not drawn)

1. < 100 nM
2. < 100 nM

Field: IC50. Fill in for each record below.
1. COc1c(C#N)ccc(OC(C)C(F)(F)F)c1C(=O)N1CCc2nn(-c3cccnc3)cc2C1 (stereo not drawn)
2. CCOc1cc(-n2cc3c(n2)CN(C(=O)c2cc(C#N)ccc2OC(C)C)C3)ccn1
3. COc1c(C#N)ccc(C2(F)CCC2)c1C(=O)N1CCc2nn(-c3ccc(F)cn3)cc2C1
4. COc1c(C#N)ccc(C2(F)CCC2)c1C(=O)N1Cc2cn(-c3cccc(C)n3)nc2C1
5. CS(=O)(=O)c1ccc(N2CCC(F)(F)C2)c(C(=O)N2CCc3nn(-c4ccccc4)cc3C2)c1
6. C[C@H](Oc1ccc(C#N)c(Cl)c1C(=O)N1CCc2nn(-c3ccnc(C(F)(F)F)c3)cc2C1)C(F)(F)F

["< 100 nM", "100 to 1000 nM", "100 to 1000 nM", "100 to 1000 nM", "100 to 1000 nM", "100 to 1000 nM"]

###

Could you please report measured IC50 for the items listed next?
molecular target: GlyT1 (Homo sapiens, UniProt P48067); construct: expressed in transfected cells; test: Glycine Transporter 1 (GlyT1) uptake assay, scintillation proximity assay of [14C]-glycine uptake; format: cell-based; settings: SPA, four parameter logistic fit, read-out: GlyT1 (pIC50) (converted)

Examples with answers:
Print GlyT1 (Homo sapiens, UniProt P48067) IC50 for Cc1cc(F)cnc1-n1cc2c(n1)CN(C(=O)c1c(O[C@@H](C)C(F)(F)F)ccc(C#N)c1Cl)C2 [Example 299] .
100 to 1000 nM

System GlyT1 (Homo sapiens, UniProt P48067). Read-out IC50. Item COc1c(C#N)ccc(C2CCCC2)c1C(=O)N1Cc2cn(-c3ccc(F)cc3)nc2C1 [Example 494] . Report value.
< 100 nM

GET IC50 where system = GlyT1 (Homo sapiens, UniProt P48067) and item = CC(C)(C)COc1ccc(C#N)c(Cl)c1C(=O)N1CCc2nn(-c3ccccc3)cc2C1 [Example 503]
100 to 1000 nM

Give IC50 for all compounds that follow.
1. Cc1cc(-n2cc3c(n2)CN(C(=O)c2cc(C#N)ccc2-c2cccc(F)c2)C3)ccn1 [Example 8]
2. COCCCn1cc2c(n1)CN(C(=O)c1cc(C#N)ccc1O[C@@H](C)C(F)(F)F)C2 [Example 393]
3. CC(C)(C)COc1ccc(S(C)(=O)=O)cc1C(=O)N1Cc2cn(-c3cc(Cl)ccc3F)nc2C1 [Example 65]
4. CS(=O)(=O)c1ccc(N2CCC(F)(F)CC2)c(C(=O)N2Cc3cn(-c4ccc(F)cn4)nc3C2)c1 [Example 120]
5. COc1c(C#N)ccc(C2CCCC2)c1C(=O)N1Cc2cn(-c3cncc(F)c3)nc2C1 [Example 495]

1: < 100 nM; 2: 100 to 1000 nM; 3: < 100 nM; 4: < 100 nM; 5: < 100 nM

###

For each of the molecules below, state its IC50.
Target: GlyT1 (Homo sapiens)
Construct: expressed in transfected cells
Sequence (P48067 1-706): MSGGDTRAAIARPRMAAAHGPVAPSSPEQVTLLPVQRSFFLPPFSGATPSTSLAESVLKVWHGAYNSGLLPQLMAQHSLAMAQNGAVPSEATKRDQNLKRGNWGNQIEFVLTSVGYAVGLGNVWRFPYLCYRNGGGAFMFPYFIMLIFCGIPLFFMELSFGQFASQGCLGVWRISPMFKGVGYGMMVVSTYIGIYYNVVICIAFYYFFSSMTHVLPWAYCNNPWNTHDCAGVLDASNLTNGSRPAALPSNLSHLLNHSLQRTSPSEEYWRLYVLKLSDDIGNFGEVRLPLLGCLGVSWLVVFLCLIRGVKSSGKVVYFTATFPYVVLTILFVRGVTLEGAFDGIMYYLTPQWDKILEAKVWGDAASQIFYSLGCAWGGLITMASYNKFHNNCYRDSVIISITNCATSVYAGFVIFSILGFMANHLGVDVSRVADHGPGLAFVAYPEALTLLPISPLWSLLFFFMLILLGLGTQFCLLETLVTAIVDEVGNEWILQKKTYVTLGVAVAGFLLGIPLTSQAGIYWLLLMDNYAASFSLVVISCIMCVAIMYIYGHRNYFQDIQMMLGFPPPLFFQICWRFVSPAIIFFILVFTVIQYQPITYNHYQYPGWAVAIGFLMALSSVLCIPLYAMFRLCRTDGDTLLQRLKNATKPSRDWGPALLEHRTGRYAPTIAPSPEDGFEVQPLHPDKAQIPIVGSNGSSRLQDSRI
Assay: Glycine Transporter 1 (GlyT1) uptake assay, scintillation proximity assay of [14C]-glycine uptake
Format: cell-based
Settings: SPA, four parameter logistic fit, read-out: GlyT1 (pIC50) (converted)

See these solved cases before continuing.
Give IC50 for COc1c(C#N)ccc(OC(C)C)c1C(=O)N1Cc2cn(-c3ccccc3)nc2C1
< 100 nM

Answer with reported IC50 of Cc1c(F)ccc(-n2cc3c(n2)CN(C(=O)c2cc(S(C)(=O)=O)ccc2OCC(C)C)C3)c1F
< 100 nM

Note down IC50 recorded for CS(=O)(=O)c1ccc(OCC2CC2)c(C(=O)N2Cc3cn(-c4ccccc4F)nc3C2)c1
< 100 nM

Please give IC50 for each item listed below.
1. COc1c(C#N)ccc(O[C@@H](C)C(F)(F)F)c1C(=O)N1Cc2cn(-c3ccccc3F)nc2C1
2. C[C@H](Oc1ccc(C#N)cc1C(=O)N1Cc2cn(CC3CC3)nc2C1)C(F)(F)F
3. C[C@H](Oc1ccc(C#N)cc1C(=O)N1Cc2cn(-c3ccccn3)nc2C1)C(F)(F)F
4. COc1c(C#N)ccc(C2(F)CCC2)c1C(=O)N1Cc2cn(-c3ccc(F)cc3)nc2C1
5. CCc1cc(-n2cc3c(n2)CN(C(=O)c2cc(C#N)ccc2OC(C)C)C3)ccn1
6. COc1c(C#N)ccc(O[C@@H](C)C(F)(F)F)c1C(=O)N1Cc2cn(-c3ccc(C)nc3)nc2C1
7. CC(C)Oc1ccc(C#N)cc1C(=O)N1Cc2cn(-c3ccc(F)cc3F)nc2C1
8. CCS(=O)(=O)c1ccc(OC(C)C)c(C(=O)N2Cc3cn(-c4cccc(C)c4)nc3C2)c1

["< 100 nM", "100 to 1000 nM", "100 to 1000 nM", "100 to 1000 nM", "< 100 nM", "< 100 nM", "100 to 1000 nM", "< 100 nM"]

Dear reader, for each entry below, please note its IC50.
1. COc1c(C#N)ccc(OCC(F)(F)F)c1C(=O)N1Cc2cn(-c3ccc(F)cn3)nc2C1
2. COc1c(C#N)ccc(OC(C)C)c1C(=O)N1Cc2cn(-c3cccc(C)n3)nc2C1
3. Cc1ccc(F)c(-n2cc3c(n2)CN(C(=O)c2cc(S(C)(=O)=O)ccc2N2CCC(F)(F)CC2)C3)c1
4. N#Cc1ccc(-c2cncc(F)c2)c(C(=O)N2Cc3cn(-c4cncc(F)c4)nc3C2)c1
5. C[C@H](Oc1ccc(S(C)(=O)=O)cc1C(=O)N1Cc2cn(CC3CC3(F)F)nc2C1)C(F)(F)F (stereo partly shown)

["100 to 1000 nM", "< 100 nM", "< 100 nM", "100 to 1000 nM", "< 100 nM"]

Entry source: patent US9708334B2
